# Experiment Notes: qHTS of pediatric cancer cell lines to identify multiple opportunities for drug repurposing: Confirmatory screen for MG 63 (6-TG R) cells (AID 1347119); further: nearly all actives have a fitted effect of over 55% in size
# Protocol Conditions: MG-63 (6-TG resistant) osteosarcoma viability; series mostly up to 45.9 µM
Records with an inconclusive call do not appear. Active and inactive are the calls of the source. The call rests on the fitted dose curve; in most records, active means well fitted cell-killing curve with a large enough effect; inconclusive means small, poorly fitted or top-dose-only effect, or effect the other way; inactive means no such curve, though single readings can be large or run the other way.
Output constraint: value belongs to active, inactive

Worked examples follow.
Molecule: CN1[C@@H]2CC[C@H]1CC(OC(=O)c1cc(Cl)cc(Cl)c1)C2 (stereo partly specified)
Class Name: inactive
//
Molecule: COc1ccc2c(C(=O)c3ccc(Cl)cc3)c(C)n(CC(=O)O)c2c1
Class Name: inactive
//
Molecule: CCCCCCCCC(=O)NCc1ccc(O)c(OC)c1
Class Name: inactive
//
Molecule: CCc1ccc(C2CCNCC2)cc1
Class Name: inactive
//
Molecule: CCCCCCCCCCCC[N+](C)(C)CCOc1ccccc1
Class Name: active

Prompt: Look up the recorded call for C[C@@H]1O[C@@H](O[C@@H]2C=C3CC[C@@H]4[C@H](CC[C@]5(C)[C@@H](c6ccc(=O)oc6)CC[C@]45O)[C@@]3(C)CC2)[C@H](O)[C@H](O)[C@H]1O in this test.
Response: active

---

# Test system: P93_24
# Experiment Notes: qHTS profiling for inhibitors of Plasmodium falciparum proliferation (AID 504749); further: nearly all actives have a fitted effect of over 60% in size
# Protocol Conditions: P. falciparum in erythrocytes, SYBR Green DNA, 72 h; series mostly up to 28.7 µM
Inconclusive results are not listed. Calls of active or inactive are those of the source. The call rests on the fitted dose curve; in most records, active means well fitted inhibition curve with a large enough effect; inconclusive means small, poorly fitted or top-dose-only effect; inactive means flat fitted curve, though single readings scatter.
Output constraint: value belongs to active, inactive

Worked examples follow.
Compound: COP(=O)(OC)OC=C(Cl)Cl
Tgt: P93_24
Class Name: inactive

Compound: CCNc1nc(Cl)nc(NCC)n1
Tgt: P93_24
Class Name: inactive

Compound: CC(C)NCC(O)c1ccc(N)c(C#N)c1 (centres undefined)
Tgt: P93_24
Class Name: inactive

Compound: CN(C)C(=S)SSC(=S)N(C)C
Tgt: P93_24
Class Name: active

Compound: ClC1=C(Cl)C2(Cl)C(CBr)CC1(Cl)C2(Cl)Cl (centres undefined)
Tgt: P93_24
Class Name: inactive

Prompt: Look up the recorded call for O=C(CCCN1CCC(n2c(=O)[nH]c3ccccc32)CC1)c1ccc(F)cc1 in this test.
Response: active

Prompt: Look up the recorded call for O=C(O)c1nn(Cc2ccc(Cl)cc2Cl)c2ccccc12 in this test.
Response: inactive

Prompt: Look up the recorded call for CCN(CC)C(C)C(=O)c1ccccc1 (centres undefined) in this test.
Response: inactive

Prompt: Look up the recorded call for O=C(NC(=O)c1c(F)cccc1F)Nc1cc(Cl)c(OC(F)(F)C(F)C(F)(F)F)cc1Cl (centres undefined) in this test.
Response: active

Prompt: Look up the recorded call for O=C1NCN(c2ccccc2)C12CCN(CCCOc1ccc(F)cc1)CC2 in this test.
Response: active

Prompt: Look up the recorded call for CNC(=O)NC(O)C(Cl)(Cl)Cl (centres undefined) in this test.
Response: inactive

Prompt: Look up the recorded call for Clc1ccc(CO/N=C(\Cn2ccnc2)c2ccc(Cl)cc2Cl)c(Cl)c1 in this test.
Response: active

Prompt: Look up the recorded call for CCCCCCCCC(=O)NCc1ccc(O)c(OC)c1 in this test.
Response: inactive

Prompt: Look up the recorded call for c1cc2c(c(N3CCNCC3)c1)OCCO2 in this test.
Response: inactive

Prompt: Look up the recorded call for C[C@]12C=CC(=O)C=C1CC[C@@H]1[C@@H]2CC[C@@]2(C)[C@H]1CC[C@]2(C)O in this test.
Response: inactive

Prompt: Look up the recorded call for NC(=O)CN1CCCC1=O in this test.
Response: inactive

Prompt: Look up the recorded call for COc1ccc(CN2CCNCC2)c(OC)c1OC in this test.
Response: inactive

Prompt: Look up the recorded call for CCS(=O)(=O)C(C)(C)S(=O)(=O)CC in this test.
Response: inactive

Prompt: Look up the recorded call for Oc1ccc2[nH]cc(CCCCN3CC=C(c4ccccc4)CC3)c2c1 in this test.
Response: active

Prompt: Look up the recorded call for C[N+]1(CCC(C(N)=O)(c2ccccc2)c2ccccc2)CCCCC1 in this test.
Response: inactive

Prompt: Look up the recorded call for COP(=O)(OC)C(O)C(Cl)(Cl)Cl (centres undefined) in this test.
Response: inactive

Prompt: Look up the recorded call for CCOC(=O)NC(O)C(Cl)(Cl)Cl (centres undefined) in this test.
Response: inactive

Prompt: Look up the recorded call for O=c1n(Cl)c(=O)n(Cl)c(=O)n1Cl in this test.
Response: inactive

Prompt: Look up the recorded call for c1ccc2nc(N3CCNCC3)ccc2c1 in this test.
Response: inactive

Every entry's value here was drawn from PubChem BioAssay (NCATS).
